- METHOD_NOTES: chemical genetic growth profiling, strain panel (AID 1159580);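 also: tested at 20 µM; growth read once vehicle control cultures reached saturation at 30 °C; 1 = growth at the plate median or of vehicle wells; lower values mean less growth of the strain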
- CONDITIONS: S. cerevisiae deletion strains, growth OD, locus YJL157C, strain FAR1
Out of some 5,500 compounds screened, about 2,000 (36%) were called active. Inconclusive results (about 18%) are left out. Rule as the data show it: active = normalized growth mostly below about 0.91 (no sharp cut-off); inconclusive = no clear call, values can overlap the other calls; inactive = mostly above about 0.92. Some of the results follow.
Hi! Could you answer with just one of these? yes (1) = active, no (0) = inactive

{"SMILES_STRUCTURE": "Cc1ccc(Nc2ccnc3cc(Cl)ccc23)cc1F", "CATEGORY_LABEL": "no (0)"}
{"SMILES_STRUCTURE": "Fc1cc(I)ccc1Nc1ccnc2cc(Cl)ccc12", "CATEGORY_LABEL": "no (0)"}
{"SMILES_STRUCTURE": "Cc1nn(C)c(C(=O)Sc2ccc(OC(F)(F)F)cc2)c1[N+](=O)[O-]", "CATEGORY_LABEL": "no (0)"}
{"SMILES_STRUCTURE": "N#C/C(=N/Nc1ccc(F)cc1)C(=O)c1ccccc1", "CATEGORY_LABEL": "no (0)"}
{"SMILES_STRUCTURE": "COc1cccc(C2CCN(C(=O)c3cccc4ccccc34)CC2)c1", "CATEGORY_LABEL": "no (0)"}

In this assay, the call recorded for `O=C(Nc1cccc(C(F)(F)F)c1)c1cncc(C#Cc2ccccc2)c1` was what?
no (0)

In this assay, the call recorded for `Cc1c(C(=O)Sc2ccc(F)cc2F)sc2nc(C(F)(F)F)nn12` was what?
yes (1)

In this assay, the call recorded for `CCOC(=O)c1ccc2nc(N=CNO)sc2c1` was what?
no (0)

In this assay, the call recorded for `N#C/C(=N/Nc1ccccc1)C(=O)c1ccccc1OC(F)(F)F` was what?
no (0)

This collection of values is drawn from PubChem BioAssay AID1159580.
